FYI, the data here is from ChEMBL document CHEMBL3588850.

tested on: Nucleic Acid; experiment: Binding affinity to HIV1 TAR RNA U3 bulge mutant at assessed as association constant at pH 6.8 by ethidium bromide displacement assay based Scatchard analysis method; type: nucleic-acid assay; conditions: Human immunodeficiency virus 1
Measure: K (×10⁶ /M)
Give bare numbers, in ×10⁶ /M.

Incoming: GET /values?readout=K&item= NC[C@@H]1O[C@H](O[C@H]2[C@@H](O)[C@H](O[C@@H]3[C@@H](O)[C@H](N)C[C@H](N)[C@H]3O[C@H]3O[C@H](CN)[C@@H](O)[C@H](O)[C@H]3N)O[C@@H]2Cn2cc(COCCCCCCCCOCc3cn(C[C@H]4O[C@@H](O[C@@H]5[C@@H](O)[C@H](N)C[C@H](N)[C@H]5O[C@H]5O[C@H](CN)[C@@H](O)[C@H](O)[C@H]5N)[C@H](O)[C@@H]4O[C@H]4O[C@@H](CN)[C@@H](O)[C@H](O)[C@H]4N)nn3)nn2)[C@H](N)[C@@H](O)[C@@H]1O
Outgoing: 4.8
